test details: NCI Yeast Anticancer Drug Screen. Data for the bub3 strain (AID 167)
test conditions: S. cerevisiae bub3 mutant strain, at 50.0 µM (retest, dose inferred, filed as 5.0), stronger effect = higher value
The panel holds about 79,000 compounds, 15% with a hit somewhere; the sample as a whole holds those more often. Active and inactive are the calls of the source. No stated cut-off is given here; in the data, active means growth inhibition above about 70%; inactive means the rest.
measured endpoint: growth inhibition

Request: Using the record for `Cc1cc(Cl)ccc1NC(=O)/C(Cl)=C1/Sc2ccccc2NC1=O` , report its growth inhibition.
Result: 91% (active)

Request: // lookup growth inhibition for `O=[N+]([O-])/C(C(Cl)=C(Cl)Cl)=C1/OCCS1`
Result: 100% (active)

Request: Which growth inhibition value is on record for CC1=CCCC2C1(C)CCC(C)C2(C)Cc1cc(O)ccc1O (stereo not given) ?
Result: 96% (active)

Request: Value lookup for growth inhibition; key = `c1ccc(N2N=C3N(c4ccccc4)C2N3c2ccccc2)cc1`
Result: 81% (active)

Request: Look up growth inhibition: `[N-]=[N+]=NC(c1ccccc1)(c1ccccc1)c1ccccc1`
Result: 79% (active)

----------
test details: NCI Yeast Anticancer Drug Screen. Data for the wt2 strain (AID 169);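 further: 0% = growth of vehicle-treated yeast cultures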
test conditions: S. cerevisiae wt2 strain growth inhibition; at 33.0 µM
About 79,000 compounds went through this panel and 15% of them were active in at least one assay; those are over-represented in the sample as a whole. Activity calls are given as the source filed them. Cut-off read from the data, not from the text of the source: active = growth inhibition above about 70%; inactive = the rest.
// classify into active, inactive

Request: Could you kindly confirm the outcome this assay logged for `CN(C)c1ccc(N=Nc2ccccn2)cc1` ?
Result: active

Request: I'd appreciate the recorded outcome for `COc1cc(/C=C/c2sc3ccccc3[n+]2C)ccc1N(C)C` from this test.
Result: inactive

Request: What is the recorded call for this compound in the test? O=C1C(Cl)=C(Cl)C(Cl)(Cl)C(Cl)C1(Cl)Cl (centres undefined)
Result: active

Request: Please indicate how the test categorized `COc1ccc(/C=C(\NC(=O)c2ccccc2)C(=O)NN(C)c2ccnc3cc(Cl)ccc23)cc1OC` .
Result: inactive

Request: Recorded test outcome, item `Nc1ccc2c(=S)c3ccccc3[nH]c2c1`
Result: inactive

Request: Just curious, what result did `Oc1ccc(Br)cc1C=NC1CCCCC1` get here?
Result: active

Request: Which outcome was assigned to COc1ccc(N2C(=O)CC(Cl)C2=O)cc1 (centres undefined) in this test?
Result: active

Request: Please let me know the test result on file for `COc1cc2c(cc1C[N+](C)(C)CSc1ccccc1)-c1ccccc1CC2` .
Result: active

Request: Write down the call the test reported for this compound. Item: `Cc1ccc2c(ccc(/C=C/c3ccc(O)c4ncccc34)[n+]2C)c1`
Result: active

Request: Hi, do you know how `CC(C)c1[nH]nc(C(N)=O)c1N=NN(C)C` came out in this test?
Result: inactive

Request: Dear colleague, could you share the recorded outcome for CC(=O)C1(O)Cc2c(O)c3c(c(O)c2C(OC2CC(N)C(O)C(C)O2)C1)C(=O)c1ccccc1C3=O (centres undefined) when you have a moment?
Result: active

Request: Write down the call the test reported for this compound. Item: `Cc1cccc(/C=N\NC(=S)N2CCCCC2)n1`
Result: active

Request: Returns: the outcome recorded for `On1cnc(=S)c2[nH]cnc21` in this assay.
Result: inactive

Request: Hi team, can someone confirm the assay call for `O=C(CNS(=O)(=O)Cc1ccccc1)NNc1ccccc1` ?
Result: inactive

----------
test details: NCI Yeast Anticancer Drug Screen. Data for the rad14 strain (AID 159);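 further: 0% = growth of vehicle-treated control cultures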
test conditions: S. cerevisiae rad14 strain growth inhibition; at 33.0 µM; stronger effect = higher value
Method: Growth inhibition of yeast strains with defined genetic alterations is measured as a screen for potential anti-cancer activity. Selected strains with alterations in DNA damage repair or cell cycle control were exposed to compounds and growth inhibition was measured relative to vehicle treated controls. The strain used in this assay is rad14
The panel holds about 79,000 compounds, 15% with a hit somewhere; the sample as a whole holds those more often.
Classify by growth inhibition. Ranges: band A: < 10%; band B: ≥ 10% and < 80%; band C: ≥ 80%

Request: Please report the category associated with `NC(N)=N/N=C/c1cc(Cl)cc(Cl)c1O` , nothing else.
Result: band B

Request: Given CC1=CCC(C(C)(C)c2ccc(O)cc2)CC1 (stereo not drawn) , name the class its growth inhibition places it in.
Result: band C

Request: State the class of the compound shown: `CCc1nc(N)nc(N)c1-c1ccc(NCCCCCCN)c([N+](=O)[O-])c1`
Result: band A

Request: Hi, small favor: classify `CC(C)c1cccc(O)c(=O)c1` by its growth inhibition when you get a moment.
Result: band B

Request: Exam item: assign `COc1ccc(N2CN(C)CSC2=S)cc1` to the correct category.
Result: band A

Request: Looking at `COc1ccc(/C(C#N)=C/c2ccc(OC)c(OC)c2)cc1` , which class would you pick?
Result: band A

Request: Just checking, what class would you give `CC(=O)O[C@H]1C(=O)[C@@]2(C)[C@H]([C@H](OC(=O)c3ccccc3)[C@]3(O)C[C@H](OC(=O)[C@H](O)[C@@H](NC(=O)c4ccccc4)c4ccccc4)C(C)=C1C3(C)C)[C@]1(OC(C)=O)CO[C@@H]1C[C@@H]2O` here?
Result: band A

Request: Could you tell me which band OC(CN1CCCCC1)c1cc(Cl)c(Cl)c(Cl)c1 (stereo not drawn) belongs to?
Result: band B

Request: Sort `NCc1c(O)ccc2ccccc12` into one of the categories.
Result: band C

Request: State the class of the compound shown: COc1cc([C@@H]2c3cc4c(cc3[C@@H](OC3OC5COC(C)OC5C(O)C3O)[C@H]3COC(=O)[C@H]23)OCO4)cc(OC)c1O (stereo partly drawn)
Result: band A

Request: Assign a bin to CCOP1(=O)C=C(Sc2ccc([N+](=O)[O-])cc2[N+](=O)[O-])C(C)(C)O1 (stereo not drawn)
Result: band B

Request: Please let me know in which category the item `S=c1[nH]nc(-c2ccc(Cl)cc2)s1` belongs.
Result: band C

Request: Returns: class label. Input: `O=[N+]([O-])c1cccc2nc3ccccc3c(NCCc3cccc[n+]3[O-])c12`
Result: band C

Request: Which category fits this record: `NNC(=S)Nc1cccc2ccccc12`
Result: band A

Request: Returns: class label. Input: CC1=CCCC2C1(C)CCC(C)C2(C)Cc1cc(O)ccc1O (stereo not drawn)
Result: band C

Request: Which growth inhibition category applies to `CCn1ncc(N=O)c1N` here?
Result: band B

Request: Lab log: `O=C1c2ccccc2C(=O)c2cc(S(=O)(=O)Nc3ccccc3)ccc21` — assign growth inhibition category
Result: band B

Request: Lab note: sort `O/N=C/C1c2ccccc2-c2ccccc21` into the matching growth inhibition band.
Result: band B

Request: Quick check: band for `COc1ccc(/C=C2\SC(=S)N(C=C3C(=O)NC(=S)NC3=O)C2=O)cc1OC`
Result: band C

Request: Quick check: band for `COc1cc2c(cc1C[N+](C)(C)CSc1ccccc1)-c1ccccc1CC2`
Result: band C

Request: Exam item: assign `CCOC(=O)CNC(=O)c1[nH]cnc1/N=N/N(C)C` to the correct category.
Result: band A

Request: Kindly state the category for this compound: `COc1cc(/C=C/c2sc3ccccc3[n+]2C)ccc1N(C)C`
Result: band C
